TGI overview
test system: OVCAR-5 ovarian; assay: NCI tumour cell line growth inhibition, 48 h
Measured endpoint: TGI

# Compound, Assayed system, Result
rows = [
    ("NC(=O)c1c2c(cc3c(=O)c4ccccc4[nH]c13)CCCC2", "OVCAR-5 ovarian", "> 100 µM"),
    ("CC1(C)Cc2c(Br)c(Br)c(Br)c(OCC(O)CN3CCOCC3)c2O1 (stereo unspecified)", "OVCAR-5 ovarian", "28.8 µM"),
    ("Cc1cc(N=C2C=C(Nc3cc(C)on3)C(=O)c3ccccc32)no1", "OVCAR-5 ovarian", "> 100 µM"),
    ("O=C(O)c1ccc(Nc2nc3ccccc3nc2C(=O)O)cc1", "OVCAR-5 ovarian", "> 100 µM"),
    ("CCOC(=O)N(C)C1(c2ccccc2)CCN(CCCC(=O)c2ccc(F)cc2)CC1", "OVCAR-5 ovarian", "> 100 µM"),
    ("CC(=O)NC1=CC(=O)c2cc(C)cc(O)c2C1=O", "OVCAR-5 ovarian", "26.1 µM"),
    ("Nc1nc(SCCC/C=C/I)nc2c1ncn2C1OC(CO)C(O)C1O (stereo unspecified)", "OVCAR-5 ovarian", "> 202 µM"),
    ("CCCCCCCCC/C=C1\\CC(CO)(COC(=O)c2ccccc2)OC1=O (stereo unspecified)", "OVCAR-5 ovarian", "33.2 µM"),
    ("CN1CC2CC(C1)c1cccc(=O)n1C2 (stereo unspecified)", "OVCAR-5 ovarian", "> 100 µM"),
    ("CCOC(=O)C(C)c1nc2cc(N3CCN(C)CC3)c(F)cc2[nH]c1=O (stereo unspecified)", "OVCAR-5 ovarian", "> 100 µM"),
    ("CNC(=O)OCc1[nH]ccc2c(C)c3nc4ccc(OC)cc4c3cc12", "OVCAR-5 ovarian", "> 100 µM"),
    ("CCOC(=O)[C@H]1Nc2ccc(Cl)cc2[C@H]2c3ccccc3O[C@H]21", "OVCAR-5 ovarian", "> 100 µM"),
    ("CCOc1cc(C2SCC(=O)N2c2nc3cc4sc(N5C(=O)CSC5c5ccc(O)c(OCC)c5)nc4cc3s2)ccc1O (stereo unspecified)", "OVCAR-5 ovarian", "> 100 µM"),
    ("CCC(C)C1(O)OC2CC3(C)OC(=CC3=O)/C(C)=C\\C3OC(=O)C1(C)C32 (stereo unspecified)", "OVCAR-5 ovarian", "> 100 µM"),
    ("O=C(NN1C(=O)C=CC1=O)c1ccccc1Nc1ccccc1C(=O)NN1C(=O)C=CC1=O", "OVCAR-5 ovarian", "> 100 µM"),
    ("Nc1nc2cc(CNc3ccc(C(=O)NC(CCC(=O)O)C(=O)O)cc3)ccc2nc1-c1ccccc1 (stereo unspecified)", "OVCAR-5 ovarian", "> 10 µM"),
    ("CC(C)=CC1CC(C)C2(CCC3(C)CC4C(C(=O)CC4(C)O)/C(C=O)=C\\CC32)O1 (stereo unspecified)", "OVCAR-5 ovarian", "0.33 µM"),
    ("COC(=O)[C@@H]1CCCN1C(=O)[C@H]1CCCN1C(=O)[C@@H](Cc1c[nH]c2ccccc12)NC(=S)Nc1cc(C(F)(F)F)cc(C(F)(F)F)c1", "OVCAR-5 ovarian", "18.4 µM"),
    ("CCN1CCC(CC(=O)Nc2n[nH]c3nc(-c4cccs4)c(Br)cc23)CC1", "OVCAR-5 ovarian", "> 25 µM"),
    ("COc1cc2c(cc1OC)-c1c(c3ccc([N+](=O)[O-])cc3c(=O)n1CCCN)C2=O", "OVCAR-5 ovarian", "9.54 µM"),
    ("NC(=O)NCCSC1CCCCC1O (stereo unspecified)", "OVCAR-5 ovarian", "> 100 µM"),
]
